System: SF-539 CNS
Experiment: NCI tumour cell line growth inhibition, 48 h
quantity.name: TGI (µM)

                                   compound  quantity_name  value_operator  assay_value
0  O=c1/c(=C/c2ccc3c(c2)OCO3)sc2nnc(-c3ccco3)n12            TGI               >          100
1                C=C1N(C)c2ccc(Cl)cc2C1(C)C            TGI               =         62.5
2  C=C(C(=O)O)[C@@H]1C[C@@H]2O[C@H]1CC(C)=CCC/C(C)=C/CC[C@@]2(C)O            TGI               >          100
3  Cc1cc(NCCCCCCNc2cc(C)nc3ccc(Cl)cc23)c2cc(Cl)ccc2n1            TGI               =         29.4
4  CC(=O)OCC1OC(Sc2ccccn2)C=CC1OC(C)=O (centres undefined)            TGI               >          100
5  CC(=O)OC1COC(Nn2c(=O)[nH]c3ccccc3c2=O)C(OC(C)=O)C1OC(C)=O (centres undefined)            TGI               >          100
6  CC(C)=CCC[C@H](C)[C@H]1CC[C@@H](C)c2cc(O)c(C)cc21            TGI               =         33.8
7             CC(C)CC(=O)NS(=O)(=O)c1ccccc1            TGI               >          100
8  [N-]=[N+]=NC1=C(c2ccccc2)C(=O)c2cccc3cccc1c23            TGI               =         91.1

---

System: 786-0 renal
Test: NCI tumour cell line growth inhibition, 48 h
*1 amine or outer side, *2 acyl side, *3 side chain or, on linkers, in order; H or OH if unused. Where a SMILES comes first, the peptide text is derived from it. Bridges are numbered along the chain shown (N, C = ends). [ ]: non-standard residue; d: D form. The star is where a group is joined. Phe(3-Me) = Cc1cccc(C[C@H](N)C(=O)O)c1; NH(4-Cl-2-F-phenyl) = Fc1cc(Cl)ccc1N*; Pro(4R-Me) = C[C@H]1CN[C@H](C(=O)O)C1; Propanoyl(3-NMe2) = CN(C)CCC(=O)*; Hyp = O=C(O)[C@@H]1C[C@@H](O)CN1; aThr = C[C@H](O)[C@H](N)C(=O)O; Pip = O=C(O)[C@@H]1CCCCN1; CO = O=C([*:1])[*:2]

compound	tested.target	GI50
COc1cc(C2C(C#N)=C(N)Oc3cc(O)ccc32)cc(OC)c1OC (centres undefined)	786-0 renal	668 nM
Nc1c(C(=O)Nc2ccccc2)sc2nc3c(cc12)CCCC3	786-0 renal	706 nM
O=C(/C=C/c1cccnc1)c1ccccc1O	786-0 renal	17200 nM
N=c1ccn2c(n1)O[C@@H]1[C@@H](O)[C@H](CO)O[C@@H]12	786-0 renal	2460 nM
C[C@@]1(N2C(=O)OC[C@@H]2c2ccccc2)C(=O)N([C@H](CC(=O)N2CCC(N3CCCCC3)CC2)C(=O)NCc2cccc(C(F)(F)F)c2)[C@@H]1/C=C/c1ccccc1	786-0 renal	1810 nM
Cc1cccc(C[C@H](NC(=O)Nc2ccc(Cl)cc2F)C(=O)N[C@@H]2C(=O)N3C[C@H](OC(=O)CCN(C)C)C[C@H]3C(=O)N3CCCC[C@H]3C(=O)N[C@@H](C)C(=O)N3C[C@H](C)C[C@H]3C(=O)O[C@H]2C)c1 ({NH(4-Cl-2-F-phenyl)-CO}-[Phe(3-Me)][aThr][Hyp](Propanoyl(3-NMe2))[Pip]A[Pro(4R-Me)]; ester 2-C)	786-0 renal	1390 nM
O=C(Nc1ccc(Br)cc1F)c1cc(Br)ccc1O	786-0 renal	1660 nM
CCCCCCCCCC(CCCC(O)CC(=O)O)OC1OC(COC2OC(C)C(O)C(O)C2O)C(O)C(O)C1OC1OC(CO)C(O)C(O)C1OC1OC(C)C(O)C(O)C1O (centres undefined)	786-0 renal	> 40000 nM
CC[C@]12CCCN3CC[C@]4(C(=C(C(=O)OC)C1)Nc1ccccc14)[C@@H]32	786-0 renal	13900 nM
